What growth was measured for each of the following?
Test system: UACC-257 melanoma
test_details: NCI-60 one-dose screen, 48 h (100 = growth as untreated, 0 = no growth, -100 = all killed)
measurement_context: 10 µM
This is part of a sample that, as a whole, favours compounds with a hit. Of some 83,000 tested, about 20% had one in any assay.
Numbers only, in %.

- smiles: "Cc1ccc2nc(Cl)c(-c3nc4ccccc4o3)cc2c1"
  experimental_system: "UACC-257 melanoma"
  growth [%]: 108
- smiles: "CCCc1nc(C(C)(C)O)c(C(=O)O)n1Cc1ccc(-c2ccccc2-c2nn[nH]n2)cc1"
  experimental_system: "UACC-257 melanoma"
  growth [%]: 103
- smiles: "Oc1cccc(-c2nc3sccn3c2-c2ccncn2)c1"
  experimental_system: "UACC-257 melanoma"
  growth [%]: 31
- smiles: "Cc1ccc(C(C)C)c(O)c1NC(=O)OC(C)C"
  experimental_system: "UACC-257 melanoma"
  growth [%]: 91.7

Below: the item to evaluate.
// field: growth; key: NNC(=O)Oc1c(Cl)cc(Cl)cc1[N+](=O)[O-] ; value = 104
